Test system: human lung cancer strain NCI-H441;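 also: cell proliferation inhibition after four days measured by CellTiter-Glo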
Assay: cells
Conditions: NCI-H441, 96 h, read-out: NCI-H441 IC50 (nM), NCI-H441 cell proliferation, 4 days, CellTiter-Glo

# smiles_text, units_of_measure, IC50
measured = [
    ("CCCN(C)C(=O)[C@@H]1CC(=O)N(C)[C@@H](CC(F)F)C(=O)N[C@@H]([C@@H](C)CC)C(=O)N(C)CC(=O)N(C)[C@H]2C/C=C\\CCN(C2=O)[C@@H](Cc2ccc(C(F)(F)F)cc2)C(=O)N(C)CC(=O)N[C@@H](CCc2ccc(C(F)(F)F)c(OC)c2)C(=O)N2C[C@H](OCC)C[C@H]2C(=O)NC2(CC(C)(C)C2)C(=O)N(C)[C@@H](C2CCCC2)C(=O)N1C", "nM", 6.6),
    ("CCCN(C)C(=O)[C@@H]1CC(=O)N(C)[C@@H](CC(F)(F)F)C(=O)N[C@@H]([C@@H](C)CC)C(=O)N(C)CC(=O)N(C)[C@H]2C/C=C\\CCN(C2=O)[C@@H](Cc2ccc(C(F)(F)F)cc2)C(=O)N(C)CC(=O)N[C@@H](CCc2cc(F)c(C(F)(F)F)c(F)c2)C(=O)N2C[C@H](OCC)C[C@H]2C(=O)NC2(CC(F)(F)C2)C(=O)N(C)[C@@H](C2CCCC2)C(=O)N1C", "nM", 4.4),
    ("CCO[C@@H]1C[C@H]2C(=O)NC3(CCC3)C(=O)N(C)[C@@H](C3CCCC3)C(=O)N(C)[C@H](C(=O)N(C)CC)CC(=O)N(C)[C@@H](C(C)C)C(=O)N[C@@H]([C@@H](C)CC)C(=O)N(C)CC(=O)N(C)[C@H]3C/C=C\\CCN(C3=O)[C@@H](Cc3ccc(C(F)(F)F)cc3)C(=O)N(C)CC(=O)N[C@@H](CCc3cc(F)c(C(F)(F)F)c(F)c3)C(=O)N2C1", "nM", 6.6),
]

---

Biological target: GDP-bound KRAS wild-type protein (Homo sapiens)
Sequence (P01116 whole entry): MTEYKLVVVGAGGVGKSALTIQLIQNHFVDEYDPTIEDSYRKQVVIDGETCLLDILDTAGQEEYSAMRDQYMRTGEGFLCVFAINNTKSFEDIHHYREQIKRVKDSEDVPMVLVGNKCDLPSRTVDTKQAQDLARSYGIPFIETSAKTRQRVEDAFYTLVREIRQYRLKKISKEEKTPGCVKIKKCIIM
Assay: Binding to KRAS by surface plasmon resonance (SPR), Single Cycle Kinetics
Conditions: SPR, Single Cycle Kinetics, GDP-bound KRAS wild-type protein; read-out: KRAS KD
pKd: −log10 of the molar value.

# smiles_text, target_of_assay, pKd
records = [
    ("CCO[C@@H]1C[C@H]2C(=O)NC3(CCC3)C(=O)N(C)[C@@H](C3CCCC3)C(=O)N(C)[C@H](C(=O)N(C)C)CC(=O)N(C)[C@@H](Cc3cccc(Cl)c3)C(=O)N[C@@H]([C@@H](C)CC)C(=O)N(C)CC(=O)N(C)[C@H]3CCCCCN(C3=O)[C@@H](Cc3ccc(C(F)(F)F)cc3)C(=O)N(C)CC(=O)N[C@@H](CCc3cc(F)c(C(F)(F)F)c(F)c3)C(=O)N2C1", "GDP-bound KRAS wild-type protein (Homo sapiens)", 9.04),
    ("CCC[C@H]1C(=O)N[C@@H](C2CCCC2)C(=O)N(C)CC(=O)N(C)[C@H]2C/C=C\\CCN(C2=O)[C@@H](Cc2ccc(C(F)(F)F)cc2)C(=O)N(C)CC(=O)N[C@@H](CCc2ccc(C(F)(F)F)c(Cl)c2)C(=O)N2C[C@H](OCC)C[C@H]2C(=O)NC2(CC(C)(C)C2)C(=O)N(C)[C@@H](C2CCCC2)C(=O)N(C)[C@H](C(=O)N(C)C)CC(=O)N1C", "GDP-bound KRAS wild-type protein (Homo sapiens)", 9.70),
    ("C#CC[C@H]1C(=O)N[C@@H]([C@@H](C)CC)C(=O)N(C)CC(=O)N(C)[C@H]2C/C=C\\CCN(C2=O)[C@@H](Cc2ccc(C(F)(F)F)cc2)C(=O)N(C)CC(=O)N[C@@H](CCc2cc(F)c(C(F)(F)F)c(F)c2)C(=O)N2C[C@H](OCC)C[C@H]2C(=O)NC2(CCC2)C(=O)N(C)[C@@H](C2CCCC2)C(=O)N(C)[C@H](C(=O)N(C)CCC)CC(=O)N1C", "GDP-bound KRAS wild-type protein (Homo sapiens)", 9.89),
]
